What IC50 was measured for each of the following?
target: Human immunodeficiency virus type 1 reverse transcriptase (Human immunodeficiency virus 1)

- smiles.representation: "Cc1ccc(-n2cc(C)nc2SCC(=O)Nc2ccccc2Cl)c(Cl)c1"
  IC50: "> 1000 nM"
- smiles.representation: "Cc1ccc(-c2c(SCC(=O)Nc3ccc(-c4ccc(OCC(=O)O)cc4)cc3Cl)ccn2C)c(Cl)c1"
  IC50: "> 1000 nM"

# next molecule below
Task: So what's the measured IC50 for this one? "Cc1ccc(-n2ncc(C)c2SCC(=O)Nc2ccc(-c3ccc(CC(=O)O)cc3)cc2Cl)c(Cl)c1"
Result: > 10000 nM
